Target: hMC1-R (Homo sapiens)
Construct: expressed in transfected cells; host or cells: HEK-293
Sequence (Q01726 whole entry): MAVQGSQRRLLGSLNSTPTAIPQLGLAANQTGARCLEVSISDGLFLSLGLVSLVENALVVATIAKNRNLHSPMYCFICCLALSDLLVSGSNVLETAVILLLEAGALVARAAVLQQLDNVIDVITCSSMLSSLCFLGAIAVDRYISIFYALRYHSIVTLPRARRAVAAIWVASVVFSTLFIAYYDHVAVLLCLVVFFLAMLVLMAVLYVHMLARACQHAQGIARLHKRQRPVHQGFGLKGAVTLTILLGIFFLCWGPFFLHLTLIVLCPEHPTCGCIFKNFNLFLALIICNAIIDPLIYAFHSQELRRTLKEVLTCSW
Assay: Competitive inhibition binding assay using [I125]-NDP-α-MSH, HEK-293 membranes, recombinant hMC1-R
Details: human recombinant MC1-R
quantity_kind: Ki (nM)

{"compound": "NCCNCCCC[C@H]1CN(C(=O)[C@H](N)Cc2ccc3ccccc3c2)[C@H](CC2CCCCC2)CN1C(=O)[C@H](N)Cc1ccc2ccccc2c1 [Example 23]", "Ki, nM": 153}

P. NCCNCCC[C@H]1CN(C(=O)[C@H](N)Cc2ccc3ccccc3c2)[C@H](CC2CCCCC2)CN1C(=O)[C@H](N)Cc1ccc2ccccc2c1 [Example 16]
Q. CC(C)C[C@@H]1CN(C(=O)[C@H](N)Cc2ccc(Cl)cc2Cl)[C@@H](CCCCNCCN)CN1C(=O)[C@H](N)Cc1ccc(Cl)cc1Cl [Example 19]
Pick one: P or Q . Which one has the lower reported Ki? Please reply using the label of the selected record. P
(P: 22 nM, Q: 754 nM)
